Source: patent US20250059179A1

test target: GDP-bound KRAS protein (aa 1-169), containing both G12D and C118A amino acid substitutions (Homo sapiens, UniProt P01116, C118A/G12D)
Sequence (P01116 1-169 isoform P01116-2 G12D/C118A): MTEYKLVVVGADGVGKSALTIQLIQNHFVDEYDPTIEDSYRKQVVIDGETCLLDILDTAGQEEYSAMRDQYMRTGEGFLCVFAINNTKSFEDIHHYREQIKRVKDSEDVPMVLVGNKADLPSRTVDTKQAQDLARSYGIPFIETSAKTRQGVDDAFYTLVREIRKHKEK
assay summary: KRAS G12D Coupled Nucleotide Exchange Assay;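 further: IC50 obtained by fitting the AlphaScreen signal with a four-parameter logistic curve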
Type: biochemical
conditions used: 2 h compound pre-incubation; SOS-mediated nucleotide exchange, cRAF AlphaScreen readout
Record form. Attribute: Avg 2 h Coupled Exchange IC50. Fill in for each entry.
Only the number, expressed in µM, is required.

Look up and state reported Avg 2 h Coupled Exchange IC50 for Nc1nc2c(-c3c(Cl)cc4c(N5CCNC(=O)CC5)nc(OCC56CCCN5CCC6)nc4c3F)ccc(F)c2s1
0.014

Look up and state reported Avg 2 h Coupled Exchange IC50 for Nc1nc2c(-c3c(Cl)cc4c(N5[C@@H]6CC[C@H]5CNC6)nc(OCC56CCCN5CC(F)(F)C6)nc4c3F)ccc(F)c2s1 (some centres unmarked)
0.009

Look up and state reported Avg 2 h Coupled Exchange IC50 for Nc1nc2c(-c3c(Cl)cc4c(N5CCNCC5)nc(N5CC(N6CCCCC6)C5)nc4c3F)cccc2s1
0.28

Look up and state reported Avg 2 h Coupled Exchange IC50 for Nc1nc2c(-c3c(Cl)cc4c(N5CCNCC5)nc(N5CC6(CCN6)C5)nc4c3F)cccc2s1
1.55

Look up and state reported Avg 2 h Coupled Exchange IC50 for Nc1nc2c(-c3c(Cl)cc4c(N5CCNCC5)nc(OCC56CCCN5C(=O)CC6)nc4c3F)cccc2s1 (centres unmarked)
3.29

Look up and state reported Avg 2 h Coupled Exchange IC50 for CN1CCC[C@H]1COc1nc2c(F)c(-c3cccc4sc(N)nc34)c(Cl)cc2c(N2CCNCC2)c1C#N
0.087

Look up and state reported Avg 2 h Coupled Exchange IC50 for Nc1nc2c(-c3c(Cl)cc4c(N5CCNCC5)nc(OC[C@@H]5CCCN5CC(F)F)nc4c3F)cccc2s1
0.549

Look up and state reported Avg 2 h Coupled Exchange IC50 for C=Cc1cc2c(N3[C@@H]4CC[C@H]3CNC4)nc(OC[C@@]34CCCN3C[C@H](F)C4)nc2c(F)c1-c1ccc(F)c2sc(N)nc12
0.005

Look up and state reported Avg 2 h Coupled Exchange IC50 for Nc1nc2c(-c3c(Cl)cc4c(N5CCNC6CC65)nc(OC[C@@]56CCCN5C[C@H](F)C6)nc4c3F)ccc(F)c2s1 (some centres unmarked)
0.014

Look up and state reported Avg 2 h Coupled Exchange IC50 for Nc1nc2c(-c3cc4nc(OC[C@@]56CCCN5C[C@H](F)C6)nc(N5C[C@H]6CC[C@@H](C5)N6)c4cc3F)ccc(F)c2s1
0.004

Look up and state reported Avg 2 h Coupled Exchange IC50 for Nc1nc2c(-c3c(Cl)cc4c(N5CCNCC5)nc(OCC56CCCCN5CCC6)nc4c3F)cccc2s1 (centres unmarked)
0.141

Look up and state reported Avg 2 h Coupled Exchange IC50 for CC1(O)CN(C2CN(c3nc(N4CCNCC4)c4cc(Cl)c(-c5cccc6sc(N)nc56)c(F)c4n3)C2)C1
0.648

Look up and state reported Avg 2 h Coupled Exchange IC50 for Nc1nc2c(-c3c(Cl)cc4c(N5CCCNCC5)nc(OC[C@@]56CCCN5C[C@H](F)C6)nc4c3F)ccc(F)c2s1
0.003

Look up and state reported Avg 2 h Coupled Exchange IC50 for C[C@@]1(COc2nc(N3CCNCC3)c3cc(Cl)c(-c4cccc5sc(N)nc45)c(F)c3n2)CCCN1
0.036
